Exercise: state measured Relative change in anisotropy, Δr for each of the compounds provided.
assaySummary: Steady-state fluorescence anisotropy of DPH-doped liposomes, POPC/Chol 75:25
Assay type: physicochemical
measurementConditions: compound 50 mM, 5 min incubation at RT
Experimental: The technique used in the present study was steady-state fluorescence anisotropy spectroscopy (fluorescence anisotropy or anisotropy in the following text). […] This depolarization can be measured as a numerical value of anisotropy (r), as shown by Eq. 1.1 r=I||−I⊥/IT where I|| and I⊥ are the intensities of emitted light parallel and perpendicular to the plane of excitation, respectively. […] A reference anisotropy value for each pure liposome was determined daily. […]
Numbers only, in %.

Solved cases (5 shown):
C1CCC[N+]2(CC1)CCCCC2.CC(=O)[O-] [[5.6][OAc], 6-Azoniaspiro[5.6]dodecane acetate]: -21
CS(=O)(=O)[O-].[Na+] [NaOMs, Sodium mesylate, reference compound]: 6
CC(=O)[O-].[Na+] [NaOAc, Sodium acetate, reference compound]: 12
C1CC[N+]2(CC1)CCCCC2.CC(=O)[O-] [[5.5][OAc], 6-Azoniaspiro[5.5]undecane acetate]: -18
C1CC[N+]2(CC1)CCCC2.CC(=O)[O-] [[4.5][OAc], 5-Azoniaspiro[4.5]decane acetate]: -1

Lab note: each compound below needs its Relative change in anisotropy, Δr filled in.
1. CN(C)C(=N)N(C)C.CS(=O)(=O)O [[TMGH][OMs], 1,1,3,3-Tetramethylguanidinium mesylate]
2. CCN(CC)CC.CS(=O)(=O)O [[TEAH][OMs], Triethylammonium mesylate]
3. C1CCC2=NCCCN2CC1.CS(=O)(=O)O [[DBUH][OMs]]

Result ::
1: 3; 2: 2; 3: -31
